Molecular target: Jak2 (human Jak2 kinase domain, amino acids 808-1132) (Homo sapiens (Human), UniProt O60674)
Sequence (O60674 808-1132): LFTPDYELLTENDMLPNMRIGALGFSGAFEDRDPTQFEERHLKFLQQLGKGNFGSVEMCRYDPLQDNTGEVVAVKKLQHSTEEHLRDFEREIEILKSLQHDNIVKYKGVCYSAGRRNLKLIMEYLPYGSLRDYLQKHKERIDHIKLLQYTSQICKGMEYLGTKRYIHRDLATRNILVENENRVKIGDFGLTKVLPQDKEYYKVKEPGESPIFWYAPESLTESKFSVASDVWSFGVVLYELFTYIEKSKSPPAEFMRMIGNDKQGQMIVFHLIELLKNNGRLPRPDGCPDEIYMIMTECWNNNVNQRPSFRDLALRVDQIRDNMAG
Test: Jak2 inhibition assay (Omnia kinase assay)
Assay type: biochemical
Details: read-out: Jak2 Enzyme (% inhibition at 1000 nM), Table 1; 1000 nM test compound
I'd be grateful if you could share measured inhibition at 1 µM for these entries.
Answers are plain numbers, in %.

Consider the worked cases shown below.
MOLECULE | inhibition at 1 µM / %
O=C(NC1CC1)c1cnn2ccc(N3CCC[C@@H]3c3cccc(F)c3)nc12 | 25
Cc1ncc(F)cc1[C@H]1CCCN1c1ccn2ncc(C(=O)NC3(C)CC3)c2n1 | 28.4
NC(=O)c1cnn2ccc(N3CCC[C@@H]3c3cc(F)ccc3F)nc12 | 25.7

Record inhibition at 1 µM for all entries; do not skip any.
1. CC(C)NC(=O)c1cnn2ccc(N3[C@H](CO)CC[C@@H]3c3cncc(F)c3)nc12
2. CC(C)NC(=O)c1cnn2ccc(N3[C@@H](c4cncc(F)c4)CC[C@@]3(C)CO)nc12
3. COc1ccc(F)cc1[C@H]1CCCN1c1ccn2ncc(C(=O)NC[C@@H](O)CO)c2n1
4. CC(C)(C#N)NC(=O)c1cnn2ccc(N3CCC[C@@H]3c3cncc(F)c3)nc12
5. COc1ccc(F)cc1[C@H]1CCCN1c1ccn2ncc(C(=O)NCCN3CCOCC3)c2n1

28.3
25.5
28
6
23

Please state inhibition at 1 µM for every molecule in the list that follows.
1. COc1ncc(F)cc1[C@H]1CCCN1c1ccn2ncc(C(=O)NOCCOC(C)(C)C)c2n1
2. CCc1ncc(F)cc1[C@H]1CCCN1c1ccn2ncc(C(=O)N[C@H]3CC[C@H](O)C3)c2n1
3. COc1ncc(F)cc1[C@H]1CCCN1c1ccn2ncc(C(=O)NCCCO)c2n1
4. Cc1ncc(F)cc1[C@H]1CCCN1c1ccn2ncc(C(=O)N[C@H]3CC[C@H](O)C3)c2n1
5. O=C(c1cnn2ccc(N3CCC[C@@H]3c3cncc(F)c3)nc12)N1CCCC1
6. O=C(NC1CC1)c1cnn2ccc(N3CCC[C@@H]3c3cncc(F)c3)nc12

1: 7.6; 2: 12.5; 3: 44.3; 4: 10.6; 5: 4.4; 6: 9.4

Quick request: inhibition at 1 µM for each listed item, please.
1. O=C(NC1CC1)c1cnn2ccc(N3CCC[C@@H]3c3cc(F)cc(OCCN4CCOCC4)c3)nc12
2. C[C@@H](O)[C@H](CO)NC(=O)c1cnn2ccc(N3CCC[C@@H]3c3cc(F)ccc3F)nc12
3. O=C(NC1(C(=O)O)CC1)c1cnn2ccc(N3CCC[C@@H]3c3cc(F)ccc3F)nc12
4. CS(=O)(=O)NCCNC(=O)c1cnn2ccc(N3CCC[C@@H]3c3cc(F)ccc3F)nc12
5. CONC(=O)c1cnn2ccc(N3CCC[C@@H]3c3cncc(F)c3)nc12

1. 6
2. 6.4
3. 2.7
4. 13.8
5. 4.9

List the reported inhibition at 1 µM of each molecule below.
1. O=C(NC[C@@H](O)CO)c1cnn2ccc(N3CCC[C@@H]3c3cc(F)ccc3F)nc12
2. COc1ncc(F)cc1[C@H]1CCCN1c1ccn2ncc(C(=O)NCC(C)(C)O)c2n1
3. CC1(C)OCC(COc2ccc(F)cc2[C@H]2CCCN2c2ccn3ncc(C(N)=O)c3n2)O1 (some centres unmarked)
4. O=C(Nc1ccc(F)cn1)c1cnn2ccc(N3CCC[C@@H]3c3cncc(F)c3)nc12
5. COc1ncc(F)cc1[C@H]1CCCN1c1ccn2ncc(C(N)=O)c2n1

1: 9.9; 2: 14.4; 3: 7.2; 4: 19.2; 5: 10.7

Each recorded value in this set is attributed to patent US10251889B2.
